test system: RXRa homodimer (NR concentration 180 nM); assay: PBM binding z-score (relative to random genomic background probes); higher = stronger binding; sequences stand for … in GC…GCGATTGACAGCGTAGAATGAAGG
measure_name: PBM binding z-score
Would you mind answering with just the numeric figure?

Worked cases, PBM binding z-score given:
Give the reported PBM binding z-score for this sequence. `CCTTACGGGTCACGAGGTTATATCACGACGAGCG`
7.11

Give the reported PBM binding z-score for this sequence. `TTACCAAGGTGAAAGGTCGTTTATGCACGCCTTG`
5.38

Give the reported PBM binding z-score for this sequence. `CCTATTAGTCGACCATAAGGGCAACCGAAGCTCG`
0.505

Give the reported PBM binding z-score for this sequence. `AGAACGAGGGGACGCTGAGTTGATAGCAGAGTAG`
-0.0794

Give the reported PBM binding z-score for this sequence. `ACTAGCAGGGCAAGTTTGGGTCACTCAAACAAAG`
1.38

Further cases:
Give the reported PBM binding z-score for this sequence. `AGAATGAGGTTATTAAGATCAGGGAATTGCGGTC`
1.89

Give the reported PBM binding z-score for this sequence. `CCGATTAGTTGACCATAAGGGCAACCGAAGCTCG`
0.56

---

tested on: PXR homodimer (NR concentration 270 nM); assay: PBM binding z-score (relative to random genomic background probes); higher = stronger binding; sequences stand for … in GC…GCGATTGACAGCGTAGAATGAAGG
Decision: PBM binding z-score compared against -0.07; not below it gives MET, below it gives NOT MET.

# count of solved cases: 4
Reported PBM binding z-score at or above -0.07? `CCTTACGGGTTACGAGGTTATAGCACGACGAGCG`
MET

Reported PBM binding z-score at or above -0.07? `TCTGCTAGGTCAATTGGTCAGCTAACGAGCTGCC`
NOT MET

Reported PBM binding z-score at or above -0.07? `GATACAGGGTCAGCTAGAGGCCAGAATATGGAAA`
MET

Reported PBM binding z-score at or above -0.07? `CGTCAAAGTTCAACGAAGGTAACGTAAAGCACGC`
MET

Further cases:
Reported PBM binding z-score at or above -0.07? `CTCGAAAGGTCGTGCTAAGGTGAGTATACCAAAC`
MET

Reported PBM binding z-score at or above -0.07? `ATATGTAGGTTAAATCCGGGTCATTCAGGCTATG`
MET

Reported PBM binding z-score at or above -0.07? `TCATCTAGGTAAATGCTAGGTGAAAGTCCGATCT`
NOT MET

Reported PBM binding z-score at or above -0.07? `CCGACTGGGGCATAAGGTTATCATAAGCCAGCCC`
MET

Reported PBM binding z-score at or above -0.07? `CCGACTGGGCCAAAGGTTACCATACTCAGTACGA`
NOT MET

Reported PBM binding z-score at or above -0.07? `TCATATAGGTAAACGGGTGAAAGTCCGTAAGTTA`
MET

Reported PBM binding z-score at or above -0.07? `CCGACTGGGGCAGAAAGTTTACCATACCATCCGG`
MET

---

test system: RARa homodimer (NR concentration 270 nM); experiment: PBM binding z-score (relative to random genomic background probes); higher = stronger binding; sequences stand for … in GC…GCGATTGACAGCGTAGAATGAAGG
The sequences listed here are annotated with their PBM binding z-score.
Would you mind answering with just the numeric figure?

Worked cases, PBM binding z-score given:
Give the reported PBM binding z-score for this sequence. `CAAACTAGGTCACAAAGGTCAAAGTCCGTGCGTA`
4.27

Give the reported PBM binding z-score for this sequence. `TCTTGTAGATCAACAGGAGGATAAGAAAGATCGA`
-0.0742

Give the reported PBM binding z-score for this sequence. `GCTAACAGGCCATTTGGGTCACTCAATGACGGGC`
-0.111

Give the reported PBM binding z-score for this sequence. `CGAACTAGGTCAATGACAGGACAGTGAATAGTAA`
0.354

Give the reported PBM binding z-score for this sequence. `ATATCTAGGTAAAGATAGTTCAGTGAATGCAAAT`
0.705

Now look at this one.
Give the reported PBM binding z-score for this sequence. `ATCGAAAGGTCGACGAGGTTAGTATACACCGTTT`
0.691

---

system: PPARg:RXRa 270nM:90nM, anti-RXR (NR concentration 270 nM, RXRa partner concentration 90 nM); assay: PBM binding z-score (relative to random genomic background probes); higher = stronger binding; sequences stand for … in GC…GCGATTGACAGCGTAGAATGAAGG
measure_name: PBM binding z-score
Would you mind answering with just the numeric figure?

Give the reported PBM binding z-score for this sequence. `CTCGAAAGGTCGGTTGAGGTGTGTATACGGATAA`
0.619

Give the reported PBM binding z-score for this sequence. `CTTCCAAGGTCAGCAGGTCAGTGAAAGCGACGTG`
4.64

---

test system: PXR homodimer (NR concentration 270 nM); assay: PBM binding z-score (relative to random genomic background probes); higher = stronger binding; sequences stand for … in GC…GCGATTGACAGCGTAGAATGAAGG
Decision: PBM binding z-score compared against -0.4; not below it gives Criterion met, below it gives Criterion not met.

Reported PBM binding z-score at or above -0.4? `ACTCGGAGGAAAAAGGTCAGAGCTACGCCAGTGA`
Criterion met

Reported PBM binding z-score at or above -0.4? `ATCTCTAGGTAAAGTTGAGTGAAAGATCGATAGA`
Criterion met

Reported PBM binding z-score at or above -0.4? `TAGCCTAGGTTATTGGGCCAGTATAGTACGCATC`
Criterion not met

Reported PBM binding z-score at or above -0.4? `CATACAGGCTCAGCTAGGCCAGAGTAGGGACGGC`
Criterion met

Reported PBM binding z-score at or above -0.4? `TCTCTTAGTTGATTAGGGCAACCGAAACAGCGGA`
Criterion met

Reported PBM binding z-score at or above -0.4? `TCGAGTAGGTTAGGGGCATTCATAATGGCGTCGA`
Criterion met

---

test system: PPARg:RXRa 90nM:30nM, anti-RXR (NR concentration 90 nM, RXRa partner concentration 30 nM); assay: PBM binding z-score (relative to random genomic background probes); higher = stronger binding; sequences stand for … in GC…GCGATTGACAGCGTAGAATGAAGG
measure_name: PBM binding z-score
Would you mind answering with just the numeric figure?

Worked cases, PBM binding z-score given:
Report measured PBM binding z-score on PPARg:RXRa 90nM:30nM, anti-RXR (NR concentration 90 nM, RXRa partner concentration 30 nM); entry: `CCCAGTTGGTCAAGGTCACACACGCTATAGGTAC`
2.57

Report measured PBM binding z-score on PPARg:RXRa 90nM:30nM, anti-RXR (NR concentration 90 nM, RXRa partner concentration 30 nM); entry: `CCTACTGGGCCATTCAGAGGTCAGTGATCATATG`
1.29

Report measured PBM binding z-score on PPARg:RXRa 90nM:30nM, anti-RXR (NR concentration 90 nM, RXRa partner concentration 30 nM); entry: `GCTGCTAGGTCAACTGATGGACAGCTAAAGCTCG`
1.92

Report measured PBM binding z-score on PPARg:RXRa 90nM:30nM, anti-RXR (NR concentration 90 nM, RXRa partner concentration 30 nM); entry: `GGAACGAGGGCAGAGTTGATAGCATCTGTCGACG`
4.85

Report measured PBM binding z-score on PPARg:RXRa 90nM:30nM, anti-RXR (NR concentration 90 nM, RXRa partner concentration 30 nM); entry: `CGTCCAAGGTCAAAGCTAGGTCAGTGAAAGCATT`
4.09

Further cases:
Report measured PBM binding z-score on PPARg:RXRa 90nM:30nM, anti-RXR (NR concentration 90 nM, RXRa partner concentration 30 nM); entry: `ACAGACCGGTGATGAAGGTAACTCAGGCTATCAT`
-0.129

---

The sequences listed here are annotated with their PBM binding z-score.
tested on: PPARg homodimer (NR concentration 180 nM); assay: PBM binding z-score (relative to random genomic background probes); higher = stronger binding; sequences stand for … in GC…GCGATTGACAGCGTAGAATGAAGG
Would you mind answering with just the numeric figure?

Report measured PBM binding z-score on PPARg homodimer (NR concentration 180 nM); entry: `ATCTCTAGGTAACCAAGTTCGGTGAATGCCGAAC`
0.509

Report measured PBM binding z-score on PPARg homodimer (NR concentration 180 nM); entry: `AGAATGAGGTTAAGATCAGGGAGACAGAATACAT`
0.955

Report measured PBM binding z-score on PPARg homodimer (NR concentration 180 nM); entry: `CCTAGCAGGCCAGGGTCACGCAAGCATTTCGCTT`
1.16

Report measured PBM binding z-score on PPARg homodimer (NR concentration 180 nM); entry: `CCTTACGGGTCACTCCAGGTTATACCATCGGAGT`
1.69

Report measured PBM binding z-score on PPARg homodimer (NR concentration 180 nM); entry: `GCTACTAGGTCAACTGATGGTCAGCTAAAGCTCG`
2.57

Further cases:
Report measured PBM binding z-score on PPARg homodimer (NR concentration 180 nM); entry: `GCTCGTAGATCAAGGTTAAGAAAGACTAAGCTAA`
-1.01

Report measured PBM binding z-score on PPARg homodimer (NR concentration 180 nM); entry: `CTACCAAGGTGAACAGGGTCGTTGATTACTATTC`
0.785

Measured values drawn from the supplement of paper PMC6555819 for this set.
